# ASSAY TEXT: ATP-evoked calcium signal inhibitors, parental CHO, primary screen, counter-screen for OX1R antagonist project, cell-based, fluorescence, Fluo-8 calcium dye (AID 463079);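 note: 0% = ATP-challenged DMSO wells and 100% = DMSO wells without ATP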
# MEASUREMENT PARAMETERS: parental CHO-K1, ATP-induced calcium, Fluo-8 fluorescence; at 5.6 µM
About 2,000 (0.61%) of roughly 330,000 compounds were called active.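 Rule for the calls: active = inhibition above that plate's mean sample inhibition plus 3 SD (cut at about 26% in these data); inactive = the rest.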 Only a selection was taken, and actives are over-represented in it overall.
Outcome field: choose from active, inactive

• COc1cc(CC(=O)Nc2nc(-c3ccc(F)c(F)c3)cs2)cc(OC)c1OC = active
• N#C/C(=C\c1ccccc1)c1n[nH]c(Cn2cncn2)n1 = inactive
• Cc1cc(N=Nc2ccc3ccccc3c2)ccc1O = inactive
• c1ccc(-c2cc3c(NCC4COc5ccccc5O4)ncnc3s2)cc1 (configuration not stated) = inactive

GET /call?item= Cc1ccc(-c2nc(COC(=O)c3c(C)noc3C)cs2)cc1 returns the recorded outcome of this test.
active

###

# ASSAY TEXT: ATP-evoked calcium signal inhibitors, parental CHO, primary screen, counter-screen for OX1R antagonist project, cell-based, fluorescence, Fluo-8 calcium dye (AID 463079);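 note: 0% = ATP-challenged DMSO wells and 100% = DMSO wells without ATP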
# MEASUREMENT PARAMETERS: parental CHO-K1, ATP-induced calcium, Fluo-8 fluorescence; at 5.6 µM; hits give high values
In all, about 330,000 compounds went through this assay and about 2,000 (0.61%) were called active. What follows is part of a selection rich in actives, with near analogues and random picks from the rest.
MEASURE: inhibition (%)
# value in %; strip the unit string

Which measured inhibition value corresponds to CC1(C)CC[C@]2(C(=O)O)CC[C@]3(C)C(=CCC4[C@@]5(C)CC[C@H](O)C(C)(C)C5[C@H](O)C[C@]43C)[C@@H]2C1 (some centres not stated) ?
-9.31

Data request, read-out inhibition, for c1ccc2c(c1)OCC(CNc1ncnc3nc[nH]c13)O2 (configuration not stated)
76

Which measured inhibition value corresponds to CCOC(=O)C1CCN(Cc2c(C(=O)N3CCOCC3)nc3c(C)cccn23)CC1 ?
-3.54

Item under review: Cc1cccn2c(=O)c(/C=C(\C#N)C(N)=O)c(N3CCCCCC3)nc12 . Reported inhibition?
-34.3

Which inhibition value is on record for O=[N+]([O-])c1c(NCCO)cc(Sc2nc3ccccc3s2)c2nonc12 ?
77.3

Any idea what its inhibition is? The molecule is S=C(NCC1COc2ccccc2O1)Nc1ccc(Br)cc1 (configuration not stated)
1.75

Sample Cc1ccc(S(=O)(=O)N2CCN(C(=O)COC(=O)c3c(C)noc3C)CC2)c(C)c1 — what was its inhibition?
-5.91

Which inhibition reading was recorded for the molecule CC(=O)N(O)CCCCCNC(=O)CCC(=O)N(O)CCCCCNC(=O)CCC(=O)N(O)CCCCCNC(=O)CCC(=O)O ?
-0.82

What does the data say about its inhibition? Entry: CC(C)(C)OC(=O)NCCCCCNC(=O)c1nc[nH]c1C(=O)NCc1ccccc1
-30.4

# get_value(readout='inhibition', item= CCOC(=O)C(Sc1ncc(C#N)c(N)n1)C(C)C (configuration not stated) )
-2.34

###

# ASSAY TEXT: ATP-evoked calcium signal inhibitors, parental CHO, primary screen, counter-screen for OX1R antagonist project, cell-based, fluorescence, Fluo-8 calcium dye (AID 463079);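 note: 0% = ATP-challenged DMSO wells and 100% = DMSO wells without ATP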
# MEASUREMENT PARAMETERS: parental CHO-K1, ATP-induced calcium, Fluo-8 fluorescence; at 5.6 µM
Out of some 330,000 compounds screened, about 2,000 (0.61%) were called active.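 Rule for the calls: active = inhibition above that plate's mean sample inhibition plus 3 SD (cut at about 26% in these data); inactive = the rest.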 The sample as a whole holds a higher share of actives than the screen did.
Outcomes you can answer with include only these: active, inactive

Field: outcome | Entry: c1ccc(CN=C2Nc3ccccc3CS2)nc1
inactive

Hi, sorry to bother you, what did the test record for Cc1ccc(S(=O)(=O)Nc2ccc(F)c(S(=O)(=O)N3CCOCC3)c2)cc1 ?
inactive

Hello, I am checking results. What call was entered for COc1cc(OC)c(-n2cc(-c3ccc(Cl)cc3)[nH]c2=O)cc1Cl ?
active

What call does the record list for COc1ccc(S(=O)(=O)N2CCOCC2)cc1NC(=O)COc1ccccc1 ?
inactive

Please share the test call associated with COc1ccc(-c2noc(C(C)NS(=O)(=O)c3ccc(NC(C)=O)cc3)n2)cc1 (configuration not stated) .
inactive

Hi, sorry to bother you, what did the test record for CC[C@]12c3[nH]c4ccc(Cl)cc4c3CCN1C(=O)[C@@H](CC(=O)NCCCOC)C[C@@H]2C(=O)N1CCN(C(=O)C2CC2)CC1 ?
inactive

Write down the call the test reported for this compound. Item: COc1ccc(CC(=O)Nc2nc(-c3ccc(F)c(F)c3)cs2)cc1OC
active

Just curious, what result did COc1cc(CC(=O)NCc2cccs2)cc(OC)c1OC get here?
inactive

What is the recorded call for this compound in the test? COc1cc(OC)c(N2CC(C(=O)Nc3cc(Cl)ccc3N3CCOCC3)CC2=O)cc1Cl (configuration not stated)
inactive

Give the logged outcome of this assay for the following compound: Cc1nc2nc(CSc3nc4ccccc4s3)cc(=O)n2[nH]1
inactive

What outcome does the record of this test show for O=C(O)c1ccccc1CSc1nc2ccccc2s1 ?
inactive

Please share the test call associated with CC1CC(C)CN(C(=O)COC(=O)c2ccc3ncsc3c2)C1 (configuration not stated) .
inactive

I'd appreciate the recorded outcome for CS(=O)(=O)N(CC(=O)Nc1ccc(Cl)c(Cl)c1)C1CCCCC1 from this test.
inactive

So what was the verdict on CNC(=O)NC(=O)CSc1nnc(-c2ccc(F)cc2)n1CC1CCCO1 (configuration not stated) in this test?
inactive

How was CCOC(=O)N1CCN(C(=O)CSc2nc(=O)n3cccc(C)c3n2)CC1 classified in this test?
inactive

Outcome? CCCc1ccc(-c2csc(NC(=O)Cc3cccs3)n2)cc1
inactive

Fill in: this test's call for COc1ccc(N2CCN(C(=O)CCc3nc(-c4ccc(C)cc4)no3)CC2)cc1 is ___
inactive
